Molecular target: T1, human MDL-1 (human, UniProt Q9NY25 1-188)
T1 sequence: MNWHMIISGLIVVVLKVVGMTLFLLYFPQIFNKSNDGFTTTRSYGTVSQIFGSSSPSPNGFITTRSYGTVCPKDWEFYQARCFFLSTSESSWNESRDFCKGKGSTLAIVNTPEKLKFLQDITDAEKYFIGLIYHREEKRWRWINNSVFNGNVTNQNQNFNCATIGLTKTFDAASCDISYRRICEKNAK
Test: cell-based or functional assay
This listing pairs binders with measured secreted beta-hexosaminidase, OD (405-570), DT808 mouse mast cells, no cross-link.

Please review the entries below; each comes with its answer.
DX246 (antibody, V domains shown, Rodent anti-human MDL-1 monoclonal antibody from a hybridoma; VL of the kappa subclass; also called anti-MDL-1 antibody clone DX246; ATCC PTA-8376) VH: QVTLKESGPGILKPSQTLSLTCSFSGFSLSTSGMNVGWIRQPSGKGLEWLAHIWWDDDKYYNPSLKSQLTISKDTSRNQVFLKITSVDTADTATYYCARRAFYGSNYDYYAMDYWGQGTSVTVSS VL: ENVLTQSPAIMSASPGEKVTMTCSVSSSVSYIHWYQQKSSTSPKLWIYDTSKLASGVPGRFSGSGSGNSYSLTISSMEAEDVATYYCFQGSGYPLTFGAGTKLELKR
3.39 OD (405-570)
DX244 (antibody, V domains shown, Parental rodent anti-human MDL-1 monoclonal antibody (not the humanized form); VL of the kappa subclass; also called anti-MDL-1 antibody clone DX244; ATCC PTA-8375) VH: QIQLVQSGPELKKPGETVKISCKASGYTFTIYAMNWVKQAPGKGLEWMGWINTDTGEPTYADDFKGRFAFSLETSASTAYLQINNLKNEDMATYFCARSSEVFYDYRFDYWGQGTALTVSS VL: DIQMTQSPSSLSASLGERVSLTCRASQDIGSSLNWLQQEPDGTIKRLIYATSNLDSGVPKRFSGSRSGSDYSLTISSLESEDFVHYYCLQYASSPFTFGSGTKLEIKR
3.46 OD (405-570)
DX230 (antibody, V domains shown, Rodent anti-human MDL-1 monoclonal antibody from a hybridoma; VL of the kappa subclass; also called anti-MDL-1 antibody clone DX230; ATCC PTA-8373) VH: EVQLVESGGDLVKPGGSLKLSCAASGFAFSNYDMSWVRQTPEKRLEWVAYISGGGGTTYYSDTVKGRFTISRDNAKNTLYLQMSSLKSEDTAMYYCVRHAVYYGKPYWGQGTTLTVSS VL: DIVLTQSPPSLAVSLGQRATVSCRASESVEHYGTGLMQWYQQKPGQPPRLLIYAASNVESGVPARFSGSGSGTDFSLNIHPVEEDDIAMYFCQQSRKVPWTFGGGTKLEIKR
3.32 OD (405-570)
DX297 (antibody, V domains shown) VH: EVQLVESGGDLVKPGGSLKLSCTASGFAFSNYDMSWVRQTPEKRLEWVAYISGGGGTTYYSDTVKGRFTISRDNARNTLYLQMSSLKSEDTAIYYCARHPIYYGKPYWGQGTTLTVSS VL: DIVLTQSPASLAVSLGQRATISCRASESVEHYGTSLMQWYQQKPGQPPRLLIYAASNVESGVPARFSGGGSGTDFSLNIHPVEEDDIAMYFCQQNRKVPWTFGGGTKLEIKR
3.17 OD (405-570)

[ask] Report secreted beta-hexosaminidase, OD (405-570), DT808 mouse mast cells, no cross-link for DX241 (antibody, V domains shown, Rodent anti-human MDL-1 monoclonal antibody from a hybridoma; VL of the kappa subclass; also called anti-MDL-1 antibody clone DX241; ATCC PTA-8374) VH: DVKLVESGGGLVKLGGSLKLSCAASGFTFSSYYMSWVRQTPDKRLELVAAINSNGGTTYYPDTVKGRFTISRDNAKNTLYLQMSSLKPEDTALFYCVRDGEFGHYFDYWGQGTTLTVSS VL: SIVMTQTPKFLLVSAGDRVTITCKASQSVNNDVAWYQQKPGQSPKLLIYYASNRYTGVPDRFTGSGYGTDFTFTISTVQAEDLAVYFCQQDYNSPLTFGAGTKLELKR please.
[reply] 2.66 OD (405-570)
